The origin of these recorded values is paper PMC5128743.

# tested.target: GSK-3β (N-terminal His6-tagged recombinant human GSK3β with an H350L mutation) (Homo sapiens, UniProt P49841)
# Construct: His6 (N); purchased EMD Millipore, Billerica, MA, USA
# Sequence (P49841 whole entry, stated change not applied): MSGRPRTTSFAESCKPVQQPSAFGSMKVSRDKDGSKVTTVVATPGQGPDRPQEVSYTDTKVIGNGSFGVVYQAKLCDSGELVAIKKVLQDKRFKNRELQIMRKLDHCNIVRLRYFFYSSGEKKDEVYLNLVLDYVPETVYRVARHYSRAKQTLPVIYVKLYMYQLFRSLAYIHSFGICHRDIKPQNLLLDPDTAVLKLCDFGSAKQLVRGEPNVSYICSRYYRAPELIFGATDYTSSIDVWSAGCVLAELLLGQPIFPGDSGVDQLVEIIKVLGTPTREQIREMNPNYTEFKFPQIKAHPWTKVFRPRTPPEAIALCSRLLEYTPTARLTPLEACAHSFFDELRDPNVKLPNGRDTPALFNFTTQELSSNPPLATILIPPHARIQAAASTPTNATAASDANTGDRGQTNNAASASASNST
# test.method.notes: GSK-3β luminescent (Kinase-Glo) inhibition assay
# Assay type: biochemical
// values below are reported IC50
Answer format: numeric, nM implied, no suffix.

Cc1cc(O)cc2oc(=O)c3c(O)cc(O)cc3c12 : 130

# ---- query molecule ----
What value of IC50 has been recorded for this entry: COc1cc(O)c2c(=O)oc3cc(O)cc(C)c3c2c1
200
